Assay: log P by HPLC on a reversed-phase column (C 18), EEC Directive 79/831 Annex V.A8
Assay type: physicochemical
Details: HPLC, reversed-phase column (C 18), 40° C.; 0.1% aqueous formic acid and acetonitrile, linear gradient 10% to 90% acetonitrile
MEASURED_ENDPOINT: logP

Answered examples (3):
Cc1ccc(C2(Cl)CC2)c(CN(C(=O)c2c(C)nn(C)c2F)C2CC2)c1 = 3.42
Cc1ccc(C2(C(C)C)CC2)c(CN(C(=O)c2c(C)nn(C)c2Cl)C2CC2)c1 = 4.80
CCC1(c2cc(Cl)ccc2CN(C(=O)c2c(C)nn(C)c2F)C2CC2)CC1 = 4.25

A = Cn1cc(C(=O)N(Cc2cc(Cl)ccc2C2(C(F)F)CC2)C2CC2)c(C(F)F)n1
B = CCc1cc(C(=O)N(Cc2cc(C)ccc2C2(C)CC2)C2CC2)c(C)o1
Ask | Please indicate which has the smaller reported logP: A , or B . Kindly state the label of the option you pick.
Reply | A
(A: 3.37, B: 5.25)

====

Experiment: log P by HPLC on a reversed-phase column (C 18), EEC Directive 79/831 Annex V.A8
Assay type: physicochemical
Settings: HPLC, reversed-phase column (C 18), 40° C.; 0.1% aqueous formic acid and acetonitrile, linear gradient 10% to 90% acetonitrile
MEASURED_ENDPOINT: logP

CCC1(c2cc(C)c(F)cc2CN(C(=O)c2c(C)nn(C)c2Cl)C2CC2)CC1 [Example 1.078] = 4.49
CCC1(c2cc(C)ccc2CN(C(=O)c2c(C)nn(C)c2F)C2CC2)CC1 [Example 1.075] = 4.11
Cc1ccc(C2(C(F)F)CC2)c(CN(C(=S)c2c(C)nn(C)c2F)C2CC2)c1 [Example 1.141] = 3.81
Cc1nn(C)c(Cl)c1C(=O)N(Cc1cc(Br)ccc1C1(C)CC1)C1CC1 [Example 1.023] = 4.24

====

Assay: log P by HPLC on a reversed-phase column (C 18), EEC Directive 79/831 Annex V.A8
Format: physicochemical
Conditions: HPLC, reversed-phase column (C 18), 40° C.; 0.1% aqueous formic acid and acetonitrile, linear gradient 10% to 90% acetonitrile
Method: In table 1, the log P values were determined in accordance with EEC Directive 79/831 Annex V.A8 by HPLC (High Performance Liquid Chromatography) on a reversed-phase column (C 18), using the method described below: Temperature: 40° C.; Mobile phases: 0.1% aqueous formic acid and acetonitrile; linear gradient from 10% acetonitrile to 90% acetonitrile. […]
MEASURED_ENDPOINT: logP

Cn1nc(C(=O)N(Cc2ccc(-c3ccccc3)cc2C2(C)CC2)C2CC2)c(C(F)F)n1 = 5.00
Cc1nn(C)cc1C(=S)N(Cc1cccc(F)c1C1(C)CC1)C1CC1 = 3.64
Cc1ccc(C2(C(C)C)CC2)c(CN(C(=O)c2nn(C)cc2C(F)F)C2CC2)c1 = 4.90
CCC1(c2cccc(F)c2CN(C(=O)c2cn(C)nc2C(F)F)C2CC2)CC1 = 3.74

====

Assay: log P by HPLC on a reversed-phase column (C 18), EEC Directive 79/831 Annex V.A8
Type: physicochemical
Details: HPLC, reversed-phase column (C 18), 40° C.; 0.1% aqueous formic acid and acetonitrile, linear gradient 10% to 90% acetonitrile
Procedure: In table 1, the log P values were determined in accordance with EEC Directive 79/831 Annex V.A8 by HPLC (High Performance Liquid Chromatography) on a reversed-phase column (C 18), using the method described below: Temperature: 40° C.; Mobile phases: 0.1% aqueous formic acid and acetonitrile; linear gradient from 10% acetonitrile to 90% acetonitrile. […]
MEASURED_ENDPOINT: logP

Cc1cc(C(=O)N(Cc2ccccc2C2(C(F)(F)F)CC2)C2CC2)c(C)o1 = 4.31
Cc1ccc(C2(C)CC2)c(CN(C(=O)c2c(C)nn(C)c2F)C2CC2)c1 = 3.73
Cn1cc(C(=O)N(Cc2ccc(F)cc2C2(C)CC2)C2CC2)c(C(F)F)n1 = 3.52
Cn1cc(C(=O)N(Cc2cccc(Cl)c2C2(C)CC2)C2CC2)c(C(F)F)n1 = 3.89
CCCC1(c2ccc(C)cc2CN(C(=O)c2cn(C)nc2C(F)F)C2CC2)CC1 = 4.59
CCC1(c2ccc(Cl)cc2CN(C(=O)c2cc(C)oc2C)C2CC2)CC1 = 5.31

P = Cn1cc(C(=O)N(Cc2cc(Br)ccc2C2(C)CC2)C2CC2)c(C(F)F)n1
Q = Cc1cc(C(=S)N(Cc2ccc(Cl)cc2C2(C)CC2)C2CC2)c(C)o1
Ask | Hi, I'm comparing P with Q and wondering which one has the bigger number for logP. Any idea? Kindly state the label of the option you pick.
Reply | Q

1 = CCC1(c2ccc(C)cc2CN(C(=O)c2cc(C)oc2C)C2CC2)CC1
2 = Cc1ccc(C2(C(F)F)CC2)c(CN(C(=O)c2cn(C)nc2C(F)F)C2CC2)c1
Ask | Please indicate which has the smaller reported logP: 1 , or 2 . Kindly state the label of the option you pick.
Reply | 2
(2: 3.29, 1: 5.14)

P = CCC1(c2ccc(Cl)cc2CN(C(=O)c2c(C)nn(C)c2F)C2CC2)CC1
Q = COC1(c2ccccc2CN(C(=O)c2cn(C)nc2C(F)F)C2CC2)CC1
Ask | Hi, I'm comparing P with Q and wondering which one has the bigger number for logP. Any idea? Kindly state the label of the option you pick.
Reply | P
(P: 4.23, Q: 2.88)
